- Assayed system: Cytochrome P450 2C9 (Homo sapiens)
- Assay text: Cytochrome P450 Family 2 Subfamily C Member 9 (CYP2C9) small molecule antagonists: luciferase reporter qHTS assay (AID 1671198); note: nearly all actives have a fitted effect of over 50% in size; note: potency is the fitted concentration of half-maximal effect
- Assay setup: P450-Glo CYP2C9 enzyme assay, luciferin luminescence; series mostly up to 115 µM
Inconclusive results are not listed. The source made the active and inactive calls. Calls come from the whole dose curve; as a rule, active = well fitted inhibition curve with a large enough effect in the repeat runs; inconclusive = weak or mixed curves; inactive = no such curve, though single readings can be large or run the other way.
Assay metric: Potency

Task item: GET /values?readout=Potency&system=Cytochrome P450 2C9 (Homo sapiens)&item= CCC(CC)(CC(=O)Nc1cccc(/C=C/c2nc(C3CCC3)cs2)c1)C(=O)O
Reply: 27.5 µM (active)

Task item: GET /values?readout=Potency&system=Cytochrome P450 2C9 (Homo sapiens)&item= Cc1c(C)c([N+](=O)[O-])c(C(C)(C)C)c([N+](=O)[O-])c1C
Reply: 35.6 µM (active)

Task item: GET /values?readout=Potency&system=Cytochrome P450 2C9 (Homo sapiens)&item= CC1=CCC(=C(C)C)CC1
Reply: 39.9 µM (active)

Task item: GET /values?readout=Potency&system=Cytochrome P450 2C9 (Homo sapiens)&item= CC(N=C(NC#N)Nc1ccncc1)C(C)(C)C (centres undefined)
Reply: 13.8 µM (active)

Task item: GET /values?readout=Potency&system=Cytochrome P450 2C9 (Homo sapiens)&item= CCc1cccc(CC)c1NC(=O)CN(CC(=O)O)CC(=O)O
Reply: inactive

Further cases:
Task item: GET /values?readout=Potency&system=Cytochrome P450 2C9 (Homo sapiens)&item= Cc1cccc2cccnc12
Reply: inactive

Task item: GET /values?readout=Potency&system=Cytochrome P450 2C9 (Homo sapiens)&item= CCCCCCCCCCCCCC[N+](C)(C)Cc1ccccc1
Reply: 80.9 µM (active)

Task item: GET /values?readout=Potency&system=Cytochrome P450 2C9 (Homo sapiens)&item= O=C(O)c1cc(=O)c2ccccc2o1
Reply: inactive

Task item: GET /values?readout=Potency&system=Cytochrome P450 2C9 (Homo sapiens)&item= CN(C)[C@@H](CCOc1cccc2ccccc12)c1ccccc1
Reply: 15.5 µM (active)

Task item: GET /values?readout=Potency&system=Cytochrome P450 2C9 (Homo sapiens)&item= O=C(O)[C@H](O)[C@@H](O)[C@H](O[C@@H]1O[C@H](CO)[C@H](O)[C@H](O)[C@H]1O)[C@H](O)CO
Reply: inactive

###

- Assayed system: Aromatase (Homo sapiens) (UniProt P11511)
- Sequence (P11511 whole entry, looked up): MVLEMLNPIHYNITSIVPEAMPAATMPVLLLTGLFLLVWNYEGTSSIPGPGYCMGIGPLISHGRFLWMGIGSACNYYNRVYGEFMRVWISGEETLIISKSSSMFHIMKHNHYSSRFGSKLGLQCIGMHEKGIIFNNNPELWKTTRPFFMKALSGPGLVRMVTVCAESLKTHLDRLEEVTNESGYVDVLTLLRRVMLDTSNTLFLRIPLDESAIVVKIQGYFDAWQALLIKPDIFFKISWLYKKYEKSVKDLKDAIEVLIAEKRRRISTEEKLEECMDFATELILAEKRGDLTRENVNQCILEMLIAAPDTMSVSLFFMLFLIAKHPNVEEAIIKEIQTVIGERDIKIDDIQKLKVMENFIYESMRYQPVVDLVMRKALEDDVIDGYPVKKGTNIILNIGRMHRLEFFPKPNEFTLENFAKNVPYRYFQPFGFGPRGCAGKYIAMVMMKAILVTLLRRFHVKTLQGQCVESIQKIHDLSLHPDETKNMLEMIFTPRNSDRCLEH
- Assay text: qHTS assay to identify aromatase inhibitors (AID 743083); note: nearly all actives have a fitted effect of over 55% in size
- Assay setup: MCF-7 aro ERE, testosterone-driven ERE luciferase, 24 h; series mostly up to 70.3 µM
Records with an inconclusive call do not appear. Active and inactive are the calls of the source. The call rests on the fitted dose curve; in most records, active means well fitted inhibition curve with a large enough effect in the repeat runs; inconclusive means weak or mixed curves; inactive means no such curve, though single readings can be large or run the other way.
Pick one: active, inactive

Would you please look over these solved cases?
Task item: What outcome does the record of this test show for Cc1ccc(N/N=c2\c(=O)cc/c(=N\Nc3ccc(S(=O)(=O)O)cc3)c2=O)c(C)c1 ?
Reply: inactive

Task item: What outcome does the record of this test show for C=Cc1ccccc1C=C ?
Reply: inactive

Further cases:
Task item: What outcome does the record of this test show for Oc1ccccc1O ?
Reply: active

Task item: What outcome does the record of this test show for O=C(O)c1cc(O)c2ccccc2c1O ?
Reply: active

Task item: What outcome does the record of this test show for Cc1ccc(O)c(O)c1 ?
Reply: active

Task item: What outcome does the record of this test show for OC1CCC(C2CCCCC2)CC1 (centres undefined) ?
Reply: inactive

Task item: What outcome does the record of this test show for CCCNCCC ?
Reply: inactive

Task item: What outcome does the record of this test show for CC(C)OC(=O)C(O)(CC(=O)O)CC(=O)O ?
Reply: inactive

Task item: What outcome does the record of this test show for O=C(/C=C/c1ccccc1)OC/C=C/c1ccccc1 ?
Reply: inactive

Task item: What outcome does the record of this test show for CC1(C)CC(O)CC(C)(C)N1 ?
Reply: inactive

Task item: What outcome does the record of this test show for O=S(=O)(O)c1ccccc1/C=C/c1ccc(-c2ccc(/C=C/c3ccccc3S(=O)(=O)O)cc2)cc1 ?
Reply: inactive

Task item: What outcome does the record of this test show for NC(=S)NC(N)=S ?
Reply: inactive

Task item: What outcome does the record of this test show for Cc1c(F)c(N2CCNC(C)C2)cc2c1c(=O)c(C(=O)O)cn2C1CC1 (centres undefined) ?
Reply: inactive

Task item: What outcome does the record of this test show for CCC(=O)OC(=O)CC ?
Reply: inactive
